Source listed as patent US8163909B2.

# assaySystem: CYP2D6 (Homo sapiens, UniProt P10635)
# Sequence (P10635 whole entry): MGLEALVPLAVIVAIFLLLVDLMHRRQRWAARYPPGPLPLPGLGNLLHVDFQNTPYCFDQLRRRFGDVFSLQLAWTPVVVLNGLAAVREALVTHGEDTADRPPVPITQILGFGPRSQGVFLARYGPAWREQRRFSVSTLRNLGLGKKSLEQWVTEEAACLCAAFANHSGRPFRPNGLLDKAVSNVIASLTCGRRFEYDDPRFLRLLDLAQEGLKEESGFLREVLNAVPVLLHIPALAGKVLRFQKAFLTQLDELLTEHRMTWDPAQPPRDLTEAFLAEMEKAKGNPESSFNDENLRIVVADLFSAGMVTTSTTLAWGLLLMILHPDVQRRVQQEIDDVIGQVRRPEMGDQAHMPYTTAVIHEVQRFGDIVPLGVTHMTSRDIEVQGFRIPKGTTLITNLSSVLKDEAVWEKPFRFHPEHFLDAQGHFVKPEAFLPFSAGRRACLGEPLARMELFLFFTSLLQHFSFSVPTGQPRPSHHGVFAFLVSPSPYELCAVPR
# assayProtocol: CYP2D6 inhibition assay (bufuralol, pooled human liver microsomes)
# conditionSet: 2D6 IC50, CYP enzyme inhibition
# IC50 values compiled below
Return type: number; implicit unit nM.

Completed entries (count: 5):
smilesText	assaySystem	IC50, nM
C#Cc1cccc(C[C@H](NC(=O)[C@@H]2CCCO2)[C@H](O)CN[C@H]2CC3(CCC3)Oc3ncc(CC(C)(C)C)cc32)c1	CYP2D6 (Homo sapiens, UniProt P10635)	3600
CC(C)(C)Cc1cnc2c(c1)[C@@H](NC[C@@H](O)[C@H](Cc1ccc3c(c1)OCO3)NC(=O)C(C)(C)C)CC1(CCC1)O2	CYP2D6 (Homo sapiens, UniProt P10635)	500
C#Cc1cccc(C[C@H](NC(=O)COCC)[C@H](O)CN[C@H]2CC3(CCC3)Oc3ncc(CC(C)(C)C)cc32)c1	CYP2D6 (Homo sapiens, UniProt P10635)	1600
COCC(=O)N[C@@H](Cc1cc(Br)cc(-c2nccs2)c1)[C@H](O)CN[C@H]1CC2(CCC2)Oc2ncc(CC(C)(C)C)cc21	CYP2D6 (Homo sapiens, UniProt P10635)	700
COCC(=O)N[C@@H](Cc1ccc(F)cc1)[C@H](O)CN[C@@H]1CC2(CCC2)Oc2c1cc(CC(C)(C)C)nc2-n1ccnc1	CYP2D6 (Homo sapiens, UniProt P10635)	800

Okay, now this compound:
response.value for CCCc1cnc2c(c1)[C@@H](NC[C@@H](O)[C@H](Cc1cc(F)cc(-c3nccs3)c1)NC(=O)[C@@H](C)OC)CC1(CCC1)O2 (field: IC50) = 700
